measurement_target: rat B1R (bradykinin receptor 1) (Rattus norvegicus, UniProt P97583)
Construct: expressed in transfected cells; host or cells: CHO K1 cells
Sequence (P97583 whole entry): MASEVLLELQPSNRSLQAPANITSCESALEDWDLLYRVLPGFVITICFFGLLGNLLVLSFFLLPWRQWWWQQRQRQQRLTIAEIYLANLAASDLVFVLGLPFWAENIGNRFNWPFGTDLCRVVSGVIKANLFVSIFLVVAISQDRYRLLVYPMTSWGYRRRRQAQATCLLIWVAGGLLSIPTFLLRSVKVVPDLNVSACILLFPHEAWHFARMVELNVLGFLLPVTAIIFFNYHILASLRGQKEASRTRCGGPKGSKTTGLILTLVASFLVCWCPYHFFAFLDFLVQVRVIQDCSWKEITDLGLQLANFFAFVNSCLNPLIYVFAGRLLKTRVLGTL
measurement_protocol: FLIPR Ca2+ assay (Fluo-4) on CHO K1 cells stably transfected with the B1R gene of the rat (rB1R cells): % inhibition at 10 μM / IC50, agonist Des-Arg9-bradykinin
Assay type: cell-based
measurement_setup: CHO-K1, rat B1R
recorded_metric: inhibition at 10 µM (%)

Consider the worked cases shown below.
molecule | inhibition at 10 µM [%]
O=C(NC1CCc2ccc(C(=O)N3CCC4(CC3)CCN(c3ccncc3)CC4)cc21)c1c(Cl)cccc1Cl (stereo not shown) | 107
O=C(NC1CCc2ccc(C(=O)N3CCC4(CCN(Cc5cc(F)ccc5F)CC4)CC3)cc21)c1c(F)cccc1Cl (stereo not shown) | 96
O=C(NC1CCc2ccc(C(=O)N3CCC4(CCN(CCCc5ccc(F)cc5)CC4)C3)cc21)c1cccc(Cl)c1Cl (stereo not shown) | 98

A. O=C(c1cccc2c1CC[C@H]2NS(=O)(=O)c1ccccc1Cl)N1CCC2(CCN(c3ccncc3)CC2)C1
B. O=C(N[C@@H]1CCc2ccc(C(=O)N3CCC4(CCN(c5ccncc5)CC4)C3)cc21)c1cncnc1
[in] Which of these two has the smaller recorded inhibition at 10 µM: A or B ? State the label of the item chosen.
[out] A

* * *

measurement_target: rat B1R (bradykinin receptor 1) (Rattus norvegicus, UniProt P97583)
Construct: expressed in transfected cells; host or cells: CHO K1 cells
measurement_protocol: FLIPR Ca2+ assay (Fluo-4) on CHO K1 cells stably transfected with the B1R gene of the rat (rB1R cells): % inhibition at 10 μM / IC50, agonist Des-Arg9-bradykinin
Format: cell-based
measurement_setup: CHO-K1, rat B1R
recorded_metric: inhibition at 10 µM (%)

As a guide, the following entries are already answered.
compound | inhibition at 10 µM, %
Cc1ccc(C(=O)N(C)C2CCc3ccc(C(=O)N4CCC5(CC4)CCN(c4ccncc4)CC5)cc32)c(F)c1 (stereo not shown) | 104
Cc1cc(C(=O)N2CCC3(CCN(C(=O)c4ccc5c(c4)C(NC(=O)c4ccccc4Cl)CC5)C3)CC2)n(C(C)(C)C)n1 (stereo not shown) | 57
O=C(N[C@@H]1CCc2ccc(C(=O)N3CCC4(CC3)CCN(c3ccncc3)CC4)cc21)c1ccccc1F | 109
O=C(N[C@H]1CCc2cc(C(=O)N3CCC4(CC3)CCN(c3ccncc3)CC4)ccc21)c1ccccc1Cl | 75
O=C(c1ccc2c(c1)C(N(C(=O)c1ccccc1Cl)C1CC1)CC2)N1CCC2(CCN(Cc3ccncc3)CC2)CC1 (stereo not shown) | 77

A. CC1(C)CC(NC(=O)c2cc(F)ccc2Cl)c2cc(C(=O)N3CCC4(CC3)CCN(c3ccncc3)CC4)ccc21 (stereo not shown)
B. N#Cc1ccccc1CN1CCC2(CC1)CCN(C(=O)c1ccc3c(c1)C(N(C(=O)c1ccccc1Cl)C1CC1)CC3)C2 (stereo not shown)
[in] Which numeric inhibition at 10 µM is bigger, that of A or that of B ? Write down the label of the entry you select.
[out] A
(A: 102%, B: 65%)

* * *

measurement_target: human B1R (bradykinin receptor 1) (Homo sapiens, UniProt P46663)
Construct: expressed in transfected cells; host or cells: CHO K1 cells
Sequence (P46663 whole entry): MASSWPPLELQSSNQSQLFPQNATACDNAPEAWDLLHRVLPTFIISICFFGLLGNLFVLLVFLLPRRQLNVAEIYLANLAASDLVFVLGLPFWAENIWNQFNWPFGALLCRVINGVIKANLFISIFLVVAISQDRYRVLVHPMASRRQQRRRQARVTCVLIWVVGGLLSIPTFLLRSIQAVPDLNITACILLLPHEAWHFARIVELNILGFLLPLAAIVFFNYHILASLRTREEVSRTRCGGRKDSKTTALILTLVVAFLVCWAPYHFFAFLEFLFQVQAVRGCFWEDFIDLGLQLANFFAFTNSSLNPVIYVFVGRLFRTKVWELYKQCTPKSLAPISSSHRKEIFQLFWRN
measurement_protocol: FLIPR Ca2+ assay (Fluo-4) on CHO K1 cells stably transfected with the human B1R gene (hB1R cells): % inhibition at 10 μM / IC50, agonist Lys-Des-Arg9-bradykinin
Type: cell-based
measurement_setup: CHO-K1, human B1R
recorded_metric: inhibition at 10 µM (%)

compound | result_units | obs_value
CN(C(=O)c1ccccc1Cl)C1CCc2ccc(C(=O)N3CCC4(CCN(c5ccncc5)CC4)C3)cc21 (stereo not shown) | % | 100
COc1cc(C)c(C(=O)NC2CCc3ccc(C(=O)N4CCC5(CC4)CCN(c4cccnc4)CC5)cc32)c(C)c1 (stereo not shown) | % | 42

a. O=C(NC1CCc2ccc(C(=O)N3CCC4(CC3)CCN(c3ccc(C(F)(F)F)cc3)CC4)cc21)c1ccccc1Cl (stereo not shown)
b. Cc1cccc(Cl)c1S(=O)(=O)NC1CC(C)(C)c2ccc(C(=O)N3CCC4(CC3)CCN(c3ccncc3)CC4)cc21 (stereo not shown)
[in] Given the listed items, does a or b have the lesser reported inhibition at 10 µM? Refer to your chosen item by its label in the answer.
[out] a

The origin of these recorded values is patent US8455475B2.
